- Test system: SK-MEL-28 melanoma
- protocol_details: NCI-60 one-dose screen, 48 h (100 = growth as untreated, 0 = no growth, -100 = all killed)
- recorded_conditions: 10 µM unless noted
Compounds without any hit were thinned out: in the full panel of roughly 83,000, 20% have a hit.
// returns No unless growth is strictly below 50%, in which case Yes

Examples from the recorded data:
CC(C)[C@@H]1NC(=O)[C@]2(C)CSC(=N2)c2csc(n2)CNC(=O)C[C@@H](/C=C/CCS)OC1=O	Yes
CCNc1nc(Cl)nc(NCC)n1	No
Brc1ccc2c(c1)c(-c1nc(-c3c[nH]c4ncccc34)cs1)cn2CCN1CCCCC1	No
COc1cccc2c1c(C(=O)C(=O)Nc1cc(C)no1)cn2Cc1ccc(F)cc1	No
CCCCN(CCCC)P(=O)(Oc1ccccc1)Oc1ccccc1	No
O=[N+]([O-])c1c(Br)sc(Br)c1[N+](=O)[O-]	No

Below 50% on growth? Entry CCC1(C(C)C)C(=O)NC(=S)NC1=O No

Also CC12CCC=CC1CCC1C2CCC2(C)C(c3ccc(=O)oc3)CCC12O (stereo not given) , if possible. Yes

Also CC(=O)[O][Hg][c]1c(N)c(C)cc(C)c1F , if possible. Yes

====

- Test system: CCRF-CEM leukemia
- protocol_details: NCI-60 one-dose screen, 48 h (100 = growth as untreated, 0 = no growth, -100 = all killed)
- recorded_conditions: 10 µM unless noted
This is part of a sample that, as a whole, favours compounds with a hit. Of some 83,000 tested, about 20% had one in any assay.
// returns FALSE unless growth is strictly below 30%, in which case TRUE

Examples from the recorded data:
COC(=O)[C@@H](C)C[C@H](Cc1ccc(F)cc1)NC(=O)c1csc([C@@H](C[C@H](C(C)C)N(C)C(=O)[C@@H](NC(=O)[C@H]2CCCCN2C)C2CC2)OC(C)=O)n1	TRUE
CN(C)C1C(=O)C(C(N)=O)=C(O)C2(O)C(=O)C3=C(O)c4c(O)cccc4C(C)(O)C3CC12.[Cl][Sb]([Cl])[Cl] (stereo not drawn)	TRUE
O=C(O)c1ccc([S-])cc1.[Au+].c1ccc(CN2[CH-]N(Cc3ccccc3)C(c3ccccc3)=C2c2ccccc2)cc1	TRUE

Below 30% on growth? Entry CNCc1cccnc1 FALSE

Also CCCc1cc(O)c2c3c(c(=O)oc2c1)CN(C)CC3 , if possible. TRUE

Also O=C(N/N=C\c1ccc(N(CCCl)CCCl)cc1)c1cccc([N+](=O)[O-])c1 , if possible. FALSE

Also Nc1ncnc2n[nH]nc12 , if possible. FALSE

Also COC(=O)[C@H](Cc1ccccc1)NNC(=O)c1csc([C@@H](C[C@H](C(C)C)N(C)C(=O)[C@@H](NC(=O)[C@H]2CCCCN2C)C2CC2)OC(C)=O)n1 , if possible. TRUE

Also CN1C(=O)C(=Cc2cn(Cc3ccccc3)c3ccccc23)C(=O)N(C)C1=O , if possible. FALSE

Also CC[C@H](C)[C@H](NC(=O)C12C3C4C1C1C2C3C41NC(C)=O)C(=O)N(C)[C@H](C[C@@H](OC(C)=O)c1nc(C(=O)N[C@@H](Cc2ccccc2)C[C@H](C)C(=O)OC)cs1)C(C)C (stereo partly drawn) , if possible. TRUE

Also CC1(C)CN1P(=O)(N1CC1(C)C)N1CC1(C)C (stereo not drawn) , if possible. FALSE

Also CC1(C)N=C(N)N=C(N)N1c1cccc(CCCCc2ccc(Cl)c(S(=O)(=O)F)c2)c1 , if possible. TRUE

Also CC(C)[C@]12O[C@H]1[C@@H]1O[C@]13[C@]1(O[C@H]1C[C@H]1c4c(C(=O)c5ccccc5)oc(OC(=O)c5ccccc5)c4CC[C@@]13C)[C@@H]2O , if possible. TRUE
